Taken from ChEMBL document CHEMBL1201862.

target: Sentrin-specific protease 8 (Homo sapiens, UniProt Q96LD8); format: functional;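 note: luminescence read-out of SENP8 inhibition, dose-response confirmation following an ultra-high-throughput screen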
Sequence (Q96LD8 whole entry): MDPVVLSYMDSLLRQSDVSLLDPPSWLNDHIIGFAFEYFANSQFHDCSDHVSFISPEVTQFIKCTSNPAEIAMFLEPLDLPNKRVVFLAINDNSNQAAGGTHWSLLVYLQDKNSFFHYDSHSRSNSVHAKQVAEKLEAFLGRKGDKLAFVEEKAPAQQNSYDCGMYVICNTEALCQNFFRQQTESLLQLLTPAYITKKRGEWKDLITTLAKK
The source made the active and inactive calls.
Possible outcomes: t (active), f (inactive)

molecule	label_value
COc1ccc(OC(=O)c2cc3ccccc3o2)cc1	f
C/C(=N\Cc1ccco1)c1c(C)nn(-c2nc3ccccc3s2)c1O	t
CN(C)C(=O)COC(=O)c1ccccc1Nc1ccc(SC(F)F)cc1	t
COc1ccc(NC(=O)n2ncc3cc(Cl)ccc32)cc1OC	t
Cc1cccc(C(=O)Nc2cccc(C(=O)N/N=C/c3ccc4c(c3)OCO4)c2)c1	t
O=c1c2ccccc2nnn1COc1cccc(Cl)c1	t
COc1cccc(/C=C2\CCC(C3CCCC3)C2=O)c1 (stereo not drawn)	t
Cc1cccc(N=Nc2cnc(N)s2)c1	t
